Data origin, for the record: patent US12534469B2

Target: FLT3 (Homo sapiens)
Construct: purchased Reaction Biology (RBC HotSpot Kinase Assay)
Sequence (P36888 564-958 limits assumed): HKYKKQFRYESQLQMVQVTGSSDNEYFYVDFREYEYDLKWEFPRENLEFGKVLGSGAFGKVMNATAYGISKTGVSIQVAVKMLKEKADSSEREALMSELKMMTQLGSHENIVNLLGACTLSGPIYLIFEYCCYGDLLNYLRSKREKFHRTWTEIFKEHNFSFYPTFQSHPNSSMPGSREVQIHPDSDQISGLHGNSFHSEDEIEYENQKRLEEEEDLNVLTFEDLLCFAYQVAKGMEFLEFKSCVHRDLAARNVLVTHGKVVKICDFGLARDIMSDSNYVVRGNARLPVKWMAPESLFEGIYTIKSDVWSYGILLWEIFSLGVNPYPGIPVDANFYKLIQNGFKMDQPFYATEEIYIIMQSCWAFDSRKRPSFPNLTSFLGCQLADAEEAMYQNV
Assay: RBC HotSpot Kinase Assay, FLT3
Type: biochemical
PARAMETER_MEASURED: IC50 (nM)

In the examples that follow, each entry is paired with its recorded IC50.
>>> readout_value("Cn1cc(-c2ccc3ncc(-c4cccc(N[C@H]5CNC[C@@H]5F)n4)n3n2)cn1")
0.6
>>> readout_value("Cn1cc(-c2ccc3ncc(-c4cccc(N[C@H]5CCNC[C@@H]5F)n4)n3n2)cn1")
5

[I] CC(C)(O)Cn1cc(-c2ccc3ncc(-c4cccc(N[C@H]5CNC[C@@H]5F)n4)n3n2)cn1
[II] COc1cc2ncc(-c3cccc(N[C@H]4CNCC[C@@H]4F)n3)n2nc1-c1cnn(C)c1
[III] CC(C)n1cc(-c2ccc3ncc(-c4cccc(NC5CCC6(CNC6)C5)n4)n3n2)cn1 (centres unmarked)
[IV] c1ccc(-n2cc(-c3ccc4ncc(-c5cccc(NC6CC7(CCNC7)C6)n5)n4n3)cn2)cc1 (centres unmarked)
// query Hey, can you sort those compounds up there by IC50, smallest first? Enter labels, ranked according to the request.
// result II, I, III, IV
